Provenance of the data: patent US20200031778A1

assay: Log P by HPLC on reversed phase columns (EEC directive 79/831 Annex V.A8; methods [a], [b], [c]); assay type: physicochemical; conditions: reversed phase HPLC column; method [a]: LC-UV, acidic range, 0.1% formic acid in water and acetonitrile as eluent (linear gradient from 10% to 95% acetonitrile)
The label YES is reserved for chromatographic logP strictly under 2; NO covers values equal to or above it.

Would you kindly verify if chromatographic logP of O=C(Cn1cncc1Br)c1ccc(Oc2ccc(Cl)cc2)cc1Br is strictly less than 2?
NO

Would you kindly verify if chromatographic logP of O=C(Cn1cncc1F)c1ccc(Oc2ccc(Cl)cc2)nc1F is strictly less than 2?
NO

Would you kindly verify if chromatographic logP of O=C(Cn1cncc1Br)c1ccc(Oc2ccc(Cl)cc2)cc1C(F)(F)F is strictly less than 2?
NO

Would you kindly verify if chromatographic logP of O=C(Cn1cncc1Cl)c1cnc(Oc2ccc(Cl)cc2)cc1Cl is strictly less than 2?
NO

Would you kindly verify if chromatographic logP of N#Cc1cncn1CC(=O)c1ccc(Oc2ccc(Br)cc2)cc1F is strictly less than 2?
NO

Would you kindly verify if chromatographic logP of N#Cc1cncn1CC(=O)c1ccc(Oc2ccc(I)cc2)cc1F is strictly less than 2?
NO

Would you kindly verify if chromatographic logP of O=C(Cn1cncc1Br)c1ccc(Oc2ccc(Br)cc2)cc1Cl is strictly less than 2?
NO

Would you kindly verify if chromatographic logP of N#Cc1cncn1CC(=O)c1ccccc1F is strictly less than 2?
YES

Would you kindly verify if chromatographic logP of O=C(Cn1cncc1Cl)c1ccc(Oc2ccc(Cl)cc2)cc1Cl is strictly less than 2?
NO

Would you kindly verify if chromatographic logP of O=C(Cn1cncc1Cl)c1ccc(Oc2ccc(C(F)(F)F)cc2)cc1C(F)(F)F is strictly less than 2?
NO

Would you kindly verify if chromatographic logP of O=Cc1ccc(Oc2ccc(C(=O)Cn3cncc3F)c(Cl)n2)cc1 is strictly less than 2?
YES

Would you kindly verify if chromatographic logP of O=C(Cn1cncc1Cl)c1ccc(Oc2ccc(Br)nc2)cc1Cl is strictly less than 2?
NO

Would you kindly verify if chromatographic logP of O=C(Cn1cncc1Cl)c1ccc(Oc2ccc(Cl)nc2)cc1C(F)(F)F is strictly less than 2?
NO
